// data source = patent US20030194743A1

- target.desc: T1, B lymphocyte stimulator protein (BLyS) (UniProt Q9Y275 134-285, biotinylated (b-BLyS) in phage screening and phage ELISA; unlabeled in fluorescence anisotropy and column tests)
- T1 construct: also called b-BLyS; biotinylated recombinant BLyS
- method.summary: phage ELISA on biotinylated BLyS
measured.quantity: ELISA signal (OD630)

Worked cases, answers included:
INSERT INTO assay_data (binder, value) VALUES
  ('GGNCYTDSLTKLHFCMGD (also called TN12-01-H05) [453-01-H05]', 1),
  ('LNACDIVHPNYCSGM (also called TN9-01-011) [453-01-G11]', 0.8),
  ('VHYDSLTKMWTR (also called PhD-02-B05) [453-02-B05]', 0.6),
  ('GYDVLTKLYFVP (also called PhD-02-C12) [453-02-C12]', 0.8),
  ('KEPCYFYWECAVS (also called TN7-01-A08) [453-01-A08]', 1.2),
  ('SRLCHMDELTHVCVHF (also called TN10-01-F05) [453-01-F05]', 1),
  ('KSKCFFPWECQQA (also called TN7-01-B04) [453-01-B04]', 0.8),
  ('HVDCLLHPKACYKY (also called TN8-01-C08) [453-01-C08]', 1.2);

a: FHPCDMLTGIWCQPN (also called TN9-01-G06) [453-01-G06]
b: YFDQLTHLSIKK (also called PhD-02-D05) [453-02-D05]
When a and b are compared, which has the higher number for ELISA signal? Output the label that corresponds to your choice. a

1: WTDSLTGLWFPD (also called PhD-02-C04) [453-02-C04]
2: GIYDKLTRAWLP (also called PhD-02-B02) [453-02-B02]
When 1 and 2 are compared, which has the higher number for ELISA signal? Output the label that corresponds to your choice. 1
(1: 1 OD630, 2: 0.6 OD630)
